- TESTED SYSTEM: Caspase-3 (Homo sapiens, UniProt P42574)
- Sequence (P42574 whole entry): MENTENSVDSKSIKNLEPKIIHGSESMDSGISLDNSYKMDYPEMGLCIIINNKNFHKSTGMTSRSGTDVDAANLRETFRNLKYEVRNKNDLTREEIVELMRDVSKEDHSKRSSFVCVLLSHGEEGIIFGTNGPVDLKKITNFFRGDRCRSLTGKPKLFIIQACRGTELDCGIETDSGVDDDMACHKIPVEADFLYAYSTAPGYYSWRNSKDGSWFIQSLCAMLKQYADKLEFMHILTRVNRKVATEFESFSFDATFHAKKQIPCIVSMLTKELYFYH
- TEST METHOD NOTES: Activation of caspase 3 in human MDA-MB-231 cells measured after 48 hrs by Plate reader method
TEST READOUT: EC50

{"SMILES CODE": "C=c1c(O)c(O)cc2c1=CC=C1[C@@]2(C)CC[C@@]2(C)[C@@H]3C[C@](C)(C(=O)O)CC[C@]3(C)CC[C@]12C", "TEST READOUT": "EC50", "RECORDED RESULT": "1.4 µM"}

---

- TEST METHOD NOTES: Activation of caspase 3 in human MDA-MB-231 cells measured after 48 hrs by Plate reader method
# Lookup of reported EC50 keyed by entry

{"SMILES CODE": "C#CCOC(=O)[C@]1(C)CC[C@]2(C)CC[C@]3(C)C4=CC=C5C(=CC(=O)C(OC(=O)/C=C/c6ccccc6F)=C5C)[C@]4(C)CC[C@@]3(C)[C@@H]2C1", "EC50": "14.1 µM"}
{"SMILES CODE": "C#CCOC(=O)[C@]1(C)CC[C@]2(C)CC[C@]3(C)C4=CC=C5C(=CC(=O)C(OC(=O)N(c6ccccc6)c6ccccc6)=C5C)[C@]4(C)CC[C@@]3(C)[C@@H]2C1", "EC50": "19.9 µM"}
{"SMILES CODE": "C#CCOC(=O)[C@]1(C)CC[C@]2(C)CC[C@]3(C)C4=CC=C5C(=CC(=O)C(OC(=O)N6CCN(c7ccccc7OC)CC6)=C5C)[C@]4(C)CC[C@@]3(C)[C@@H]2C1", "EC50": "18.2 µM"}
{"SMILES CODE": "C#CCOC(=O)[C@]1(C)CC[C@]2(C)CC[C@]3(C)C4=CC=C5C(=CC(=O)C(OC(=O)N(CCC)CCC)=C5C)[C@]4(C)CC[C@@]3(C)[C@@H]2C1", "EC50": "17.5 µM"}

---

- TEST METHOD NOTES: Activation of caspase 3 in human MDA-MB-231 cells measured after 48 hrs by Plate reader method
# Lookup of reported EC50 keyed by entry

{"SMILES CODE": "C#CCOC(=O)[C@]1(C)CC[C@]2(C)CC[C@]3(C)C4=CC=C5C(=CC(=O)C(OC(=O)N(C)CCC)=C5C)[C@]4(C)CC[C@@]3(C)[C@@H]2C1", "EC50 [µM]": 20.5}
{"SMILES CODE": "C#CCOC(=O)[C@]1(C)CC[C@]2(C)CC[C@]3(C)C4=CC=C5C(=CC(=O)C(OC(=O)N(CCCC)CCCC)=C5C)[C@]4(C)CC[C@@]3(C)[C@@H]2C1", "EC50 [µM]": 22.3}
{"SMILES CODE": "C#CCOC(=O)[C@]1(C)CC[C@]2(C)CC[C@]3(C)C4=CC=C5C(=CC(=O)C(OC(=O)C=C)=C5C)[C@]4(C)CC[C@@]3(C)[C@@H]2C1", "EC50 [µM]": 22.1}
{"SMILES CODE": "C#CCOC(=O)[C@]1(C)CC[C@]2(C)CC[C@]3(C)C4=CC=C5C(=CC(=O)C(OC(=O)c6ccc(F)cc6)=C5C)[C@]4(C)CC[C@@]3(C)[C@@H]2C1", "EC50 [µM]": 21.2}
{"SMILES CODE": "C#CCOC(=O)[C@]1(C)CC[C@]2(C)CC[C@]3(C)C4=CC=C5C(=CC(=O)C(OC(=O)N6c7ccccc7C=Cc7ccccc76)=C5C)[C@]4(C)CC[C@@]3(C)[C@@H]2C1", "EC50 [µM]": 23.1}
{"SMILES CODE": "C#CCOC(=O)[C@]1(C)CC[C@]2(C)CC[C@]3(C)C4=CC=C5C(=CC(=O)C(OC(=O)/C=C/C)=C5C)[C@]4(C)CC[C@@]3(C)[C@@H]2C1", "EC50 [µM]": 19.7}
{"SMILES CODE": "C#CCOC(=O)[C@]1(C)CC[C@]2(C)CC[C@]3(C)C4=CC=C5C(=CC(=O)C(OC(=O)N(C)CCCC)=C5C)[C@]4(C)CC[C@@]3(C)[C@@H]2C1", "EC50 [µM]": 20.3}
{"SMILES CODE": "C#CCOC(=O)[C@]1(C)CC[C@]2(C)CC[C@]3(C)C4=CC=C5C(=CC(=O)C(OC(C)=O)=C5C)[C@]4(C)CC[C@@]3(C)[C@@H]2C1", "EC50 [µM]": 19.3}
{"SMILES CODE": "C#CCOC(=O)[C@]1(C)CC[C@]2(C)CC[C@]3(C)C4=CC=C5C(=CC(=O)C(OC(=O)N6c7ccccc7CCc7ccccc76)=C5C)[C@]4(C)CC[C@@]3(C)[C@@H]2C1", "EC50 [µM]": 10}
{"SMILES CODE": "C#CCOC(=O)[C@]1(C)CC[C@]2(C)CC[C@]3(C)C4=CC=C5C(=CC(=O)C(OC(=O)N(C)C)=C5C)[C@]4(C)CC[C@@]3(C)[C@@H]2C1", "EC50 [µM]": 23.9}
{"SMILES CODE": "C#CCOC(=O)[C@]1(C)CC[C@]2(C)CC[C@]3(C)C4=CC=C5C(=CC(=O)C(OC(=O)c6ccc(Br)cc6)=C5C)[C@]4(C)CC[C@@]3(C)[C@@H]2C1", "EC50 [µM]": 16.4}
{"SMILES CODE": "C#CCOC(=O)[C@]1(C)CC[C@]2(C)CC[C@]3(C)C4=CC=C5C(=CC(=O)C(OC(=O)N6CCCC6)=C5C)[C@]4(C)CC[C@@]3(C)[C@@H]2C1", "EC50 [µM]": 24.3}

---

- TEST METHOD NOTES: Activation of caspase 3 in human MDA-MB-231 cells measured after 48 hrs by Plate reader method
# Lookup of reported EC50 keyed by entry

{"SMILES CODE": "CC1=C(O)C(=O)C=C2C1=CC=C1[C@@]2(C)CC[C@@]2(C)[C@@H]3C[C@](C)(C(=O)OCc4ccccc4)CC[C@]3(C)CC[C@]12C", "EC50 / µM": 1.6}
{"SMILES CODE": "C#CCOC(=O)[C@]1(C)CC[C@]2(C)CC[C@]3(C)C4=CC=C5C(=CC(=O)C(OC(=O)/C=C/c6cccc(Cl)c6)=C5C)[C@]4(C)CC[C@@]3(C)[C@@H]2C1", "EC50 / µM": 15.7}
{"SMILES CODE": "C#CCOC(=O)[C@]1(C)CC[C@]2(C)CC[C@]3(C)C4=CC=C5C(=CC(=O)C(OC(=O)N6CCN(c7cccc(OC)c7)CC6)=C5C)[C@]4(C)CC[C@@]3(C)[C@@H]2C1", "EC50 / µM": 19.6}

---

- TEST METHOD NOTES: Activation of caspase 3 in human MDA-MB-231 cells measured after 48 hrs by Plate reader method
pEC50: −log10 of the molar value.
# Lookup of reported pEC50 keyed by entry
TEST READOUT: pEC50

{"SMILES CODE": "C#CCOC(=O)[C@]1(C)CC[C@]2(C)CC[C@]3(C)C4=CC=C5C(=CC(=O)C(OC(=O)C(=C)C)=C5C)[C@]4(C)CC[C@@]3(C)[C@@H]2C1", "TEST READOUT": "pEC50", "RECORDED RESULT": 4.83}
{"SMILES CODE": "C#CCOC(=O)[C@]1(C)CC[C@]2(C)CC[C@]3(C)C4=CC=C5C(=CC(=O)C(OC(=O)CCC)=C5C)[C@]4(C)CC[C@@]3(C)[C@@H]2C1", "TEST READOUT": "pEC50", "RECORDED RESULT": 4.68}
{"SMILES CODE": "C#CCOC(=O)[C@]1(C)CC[C@]2(C)CC[C@]3(C)C4=CC=C5C(=CC(=O)C(OC(=O)/C=C/c6cccc(C)c6)=C5C)[C@]4(C)CC[C@@]3(C)[C@@H]2C1", "TEST READOUT": "pEC50", "RECORDED RESULT": 4.75}
{"SMILES CODE": "C#CCOC(=O)[C@]1(C)CC[C@]2(C)CC[C@]3(C)C4=CC=C5C(=CC(=O)C(OC(=O)N6CCN(C)CC6)=C5C)[C@]4(C)CC[C@@]3(C)[C@@H]2C1", "TEST READOUT": "pEC50", "RECORDED RESULT": 4.69}
{"SMILES CODE": "C#CCOC(=O)[C@]1(C)CC[C@]2(C)CC[C@]3(C)C4=CC=C5C(=CC(=O)C(OC(=O)/C=C/c6ccccc6)=C5C)[C@]4(C)CC[C@@]3(C)[C@@H]2C1", "TEST READOUT": "pEC50", "RECORDED RESULT": 4.70}
{"SMILES CODE": "C#CCOC(=O)[C@]1(C)CC[C@]2(C)CC[C@]3(C)C4=CC=C5C(=CC(=O)C(OC(=O)N6CCN(c7ccccc7Cl)CC6)=C5C)[C@]4(C)CC[C@@]3(C)[C@@H]2C1", "TEST READOUT": "pEC50", "RECORDED RESULT": 4.69}
